Target: T1, human CD69 recombinant protein (extracellular region 62-199, homodimer) (human, UniProt Q07108 62-199)
T1 construct: Expressed in the E. coli periplasm from cDNA NM_001781; also called human CD69 homodimer protein; extracellular domain of human CD69
T1 sequence: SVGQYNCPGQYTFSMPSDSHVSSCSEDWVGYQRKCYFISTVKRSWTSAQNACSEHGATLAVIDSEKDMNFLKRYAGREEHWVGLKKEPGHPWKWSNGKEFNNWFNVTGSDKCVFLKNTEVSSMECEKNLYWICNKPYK
Test: Scatchard plot; solution equilibrium with antigen, free IgG measured by ELISA
Readout: Kd (nM)
Could you give me the number in nM? Just the number is fine.

| Binder | Reported result |
| --- | --- |
| 160-c76 IgG antibody (IgG4) (antibody, V domains shown, Full IgG made in HEK293T) VH: QVQPGGSLRLSCAASGFTFSNFVMHWVRQAPGKGLEWVSSISGSSSSTYYADSVKGRFTISRDNSKNTLYLQMNSLRAEDTAVYYCARYYYASFDYWGQGTLVTVSS VL: DIELTQPPSVSVAPGQTARISCSGDSLGSKYVYWYQQKPGQAPVVVIYGDSKRPSGIPERFSGSNSGNTATLTISGTQAEDEADYYCQSYDSNIMVFGGGTKLTVLG | 27.8 |

Using the record for 234-83 IgG antibody (IgG4) (antibody, V domains shown, HRP-labelled in the peptide array) VH: QVQPGGSLRLSCAASGFTFSNFVMHWVRQAPGKGLEWVSSISGSSSSTYYADSVKGRFTISRDNSKNTLYLQMNSLRAEDTAVYYCARYYYASFDYWGQGTLVTVSS VL: DIELTQPPSVSVAPGQTARISCSGDSLGSKYVYWYQQKPGQAPVVVIYGDSKRPSGIPERFSGSNSGNTATLTISGTQAEDEADYYCGSYTTGAKSHVFGGGTKLTVLG , report its Kd.
2.83
